Cited source: ChEMBL document CHEMBL1137110

Molecular target: Vitamin D3 receptor (Sus scrofa)
Sequence (whole entry): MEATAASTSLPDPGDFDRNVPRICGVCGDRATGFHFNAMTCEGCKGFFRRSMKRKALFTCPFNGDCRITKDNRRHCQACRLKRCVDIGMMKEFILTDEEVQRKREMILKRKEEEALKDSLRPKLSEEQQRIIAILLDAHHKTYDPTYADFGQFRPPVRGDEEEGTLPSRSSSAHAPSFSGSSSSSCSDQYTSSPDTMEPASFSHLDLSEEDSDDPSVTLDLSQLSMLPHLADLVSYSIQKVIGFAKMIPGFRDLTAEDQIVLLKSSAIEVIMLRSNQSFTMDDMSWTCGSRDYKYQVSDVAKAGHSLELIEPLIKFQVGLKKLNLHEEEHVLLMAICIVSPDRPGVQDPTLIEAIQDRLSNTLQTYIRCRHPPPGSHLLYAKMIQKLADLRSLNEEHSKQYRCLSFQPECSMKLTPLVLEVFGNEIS
Assay: Binding affinity for pig nuclear vitamin D receptor relative to 1-alpha,25(OH)2D3
assayReadout: Activity

CC(C)(O)CCO[C@H]1CC[C@@]2(CCC/C(=C\C=C3C[C@@H](O)C[C@H](O)C3)C2)CC1 ... < 0.1
CC(C)(O)CCO[C@H]1CC[C@]2(CCC/C(=C\C=C3C[C@@H](O)C[C@H](O)C3)C2)CC1 ... < 0.1
C=C1/C(=C/C=C2/CCC[C@]3(CC[C@H](OCCC(C)(C)O)CC3)C2)C[C@@H](O)C[C@@H]1O ... < 0.1

Next item in the queue.
Q) Give its Activity value. Item: C=C1/C(=C\C=C2/CCC[C@]3(CC[C@@H](OCCC(C)(C)O)CC3)C2)C[C@@H](O)C[C@@H]1O
A) 0.5
